Numbers sourced from ChEMBL document CHEMBL6096672.

# Assay name: Apparent permeability across apical to basal side in MDCK-MDR1 cells
# Assay type: ADME, cell-based, Canis lupus familiaris
# Recorded conditions: dog
Quantity kind: Papp A→B

CCc1nc(-c2cnc(N)c(C(F)(F)F)c2)c2ccc([C@H]3COCCN3C)cn12    16.2 ×10⁻⁶ cm/s
CCc1nc(-c2cnc(N)c(OC(F)(F)F)c2)c2ccc([C@H]3COCCN3C)cn12    37.6 ×10⁻⁶ cm/s
CCn1nc(-c2cnc(N)c(OC(F)(F)F)c2)c2ccn(C3CCOCC3)c(=O)c21    7.6 ×10⁻⁶ cm/s
CCc1nc(-c2cnc(N)c(OC(F)F)c2)c2ccc([C@H]3COCCN3C)cn12    30.1 ×10⁻⁶ cm/s
CCc1nc(-c2cnc(N)c(C(F)(F)F)c2)c2ccc(C3CCN(C)CC3)cn12    10.6 ×10⁻⁶ cm/s
CCc1nc(-c2cnc(N)c(C(F)(F)F)c2)c2ccc(C3CCOCC3)cn12    12.3 ×10⁻⁶ cm/s
CCn1nc(-c2cnc(N)c(OC(F)(F)F)c2)c2ccc([C@H]3COCCN3C)cc21    24.1 ×10⁻⁶ cm/s

* * *

# Assay name: Volume of distribution at steady state in IV-dosed mouse
# Format: ADME
# Recorded conditions: in vivo, read-out: Vdss
Quantity kind: Vd (L/kg)

CCn1nc(-c2cnc(N)c(OC(F)F)c2)c2ccn([C@@H]3CCC(F)(F)C[C@@H]3OC)c(=O)c21    1.6

* * *

# Assay name: Inhibition of human DLK transfected in HEK293-T-REx cells assessed as decrease in JNK phosphorylation incubated for 5 hrs by HTRF assay
# Format: cell-based
Quantity kind: IC50 (nM)

CCc1nc(-c2cnc(N)c(C(F)(F)F)c2)c2ccc(CN3CCOCC3)cn12    242
CCn1nc(-c2cnc(N)c(OC(F)(F)F)c2)c2ccn([C@H]3CCOC[C@H]3OC3CC3)c(=O)c21    95
CN1CCOC[C@H]1c1ccc2c(-c3cnc(N)c(OC(F)(F)F)c3)nc(C(F)(F)F)n2c1    300

* * *

Listed here are molecules together with their documented pKi.
# Assay name: Inhibition of GST-tagged DLK (1 to 520 residues)(unknown origin) using MKK4 as substrate preincubated for 60 mins followed by substrate/ATP addition measured after 30 mins by HTRF assay
# Design: species or system Homo sapiens
pKi: −log10 of the molar value.
Quantity kind: pKi

CCn1nc(-c2cnc(N)c(OC(F)(F)F)c2)c2ccn(C3COC3)c(=O)c21    7.98
CC(C)c1ccc2c(-c3cnc(N)c(C(F)(F)F)c3)ncn2c1    8.04
CCc1nc(-c2cnc(N)c(C(F)(F)F)c2)c2ccc([C@H]3CN(C)CCO3)cn12    8.60
CCn1nc(-c2cnc(N)c(OC(F)(F)F)c2)c2ccn([C@@H]3CCOC[C@H]3OC)c(=O)c21    8.72
Nc1ncc(-c2n[nH]c3ccsc23)cc1C(F)(F)F    7.14
CCn1nc(-c2cnc(N)c(C(F)(F)F)c2)c2ccn([C@@H]3CCOC[C@@H]3OC3CC3)c(=O)c21    8.74
CCn1nc(-c2cnc(N)c(OC(F)(F)F)c2)c2ccn([C@H]3CCOC[C@H]3OC3CC3)c(=O)c21    8.89
CCn1nc(-c2cnc(N)c(OC(F)F)c2)c2ccn([C@H]3CCOC[C@H]3OC(F)(F)F)c(=O)c21    9.04
CCc1nc(-c2cnc(N)c(OC(F)(F)F)c2)c2cc(C)c([C@H]3COCCN3C)cn12    8.28

* * *

# Assay name: Ratio of unbound drug concentration in brain to plasma of CD-1 mouse at 5 to 75 mg/kg, po
# Type: ADME, organism-based
# Recorded conditions: brain and plasma, dose 5-75 mg/kg, read-out: K(p,uu,brain)
Quantity kind: Kp uu

CCn1nc(-c2cnc(N)c(OC(F)F)c2)c2ccn([C@@H]3CCC(F)(F)C[C@@H]3OC)c(=O)c21    0.3

* * *

# Assay name: Clearance in IV-dosed mouse
# Assay type: ADME
# Recorded conditions: in vivo
Quantity kind: clearance (mL/min/kg)

CCn1nc(-c2cnc(N)c(OC(F)F)c2)c2ccn([C@@H]3CCC(F)(F)C[C@@H]3OC)c(=O)c21    5.3

* * *

# Assay name: Total drug concentration in mouse brain at 3 to 75 mg/kg, po measured after 2 hrs
# Format: ADME, organism-based
# Recorded conditions: dose 3-75 mg/kg, read-out: Ct
Quantity kind: concentration at 2 h (ng/g)

CCn1nc(-c2cnc(N)c(OC(F)F)c2)c2ccn([C@@H]3CCC(F)(F)C[C@@H]3OC)c(=O)c21    1000

* * *

# Assay name: Intrinsic clearance in mouse liver microsomes
# Type: ADME, Microsome
# Recorded conditions: read-out: CLH
Listed here are compounds together with their documented microsomal CLint.
Quantity kind: microsomal CLint

CCn1nc(-c2cnc(N)c(OC(F)(F)F)c2)c2ccn([C@H]3CC4(CC4)OC[C@H]3OC)c(=O)c21    9.7 µL/min/mg
CCn1nc(-c2cnc(N)c(OC(F)(F)F)c2)c2ccn([C@@H]3CCOC[C@H]3OC)c(=O)c21    24 µL/min/mg
CCc1nc(-c2cnc(N)c(C(F)(F)F)c2)c2ccc([C@H]3COCCN3C)cn12    20 µL/min/mg
CCn1nc(-c2cnc(N)c(OC(F)(F)F)c2)c2ccn([C@@H]3CCOC3)c(=O)c21    33 µL/min/mg
CCn1nc(-c2cnc(N)c(OC(F)(F)F)c2)c2ccn(C3CCOCC3)c(=O)c21    16 µL/min/mg
CCc1nc(-c2cnc(N)c(OC(F)(F)F)c2)c2ccc([C@H]3COCCN3C)cn12    1 µL/min/mg
CCn1nc(-c2cnc(N)c(OC(F)(F)F)c2)c2ccn(C3COC3)c(=O)c21    24 µL/min/mg
CCn1nc(-c2cnc(N)c(OC(F)(F)F)c2)c2ccn([C@@H](C)C3CC3)c(=O)c21    10 µL/min/mg
CCn1nc(-c2cnc(N)c(OC(F)(F)F)c2)c2ccn([C@@H]3CCCOCC3)c(=O)c21    25 µL/min/mg

* * *

# Assay name: Inhibition of GST-tagged DLK (1 to 520 residues)(unknown origin) using MKK4 as substrate preincubated for 60 mins followed by substrate/ATP addition measured after 30 mins by HTRF assay
# Parameters: species or system Homo sapiens
Quantity kind: log10 of Ki (log10 of the value in nM)

CCn1nc(-c2cnc(N)c(OC(F)(F)F)c2)c2ccc([C@H]3COCCN3C)nc21    0.38
CN1CCCC[C@H]1c1ccc2c(-c3cnc(N)c(C(F)(F)F)c3)ncn2c1    0.63
CCc1nc(-c2cnc(N)c(OC(F)(F)F)c2)c2ccc([C@H]3COCC4(CC4)N3C)cn12    0.08
CCn1nc(-c2cnc(N)c(OC(F)(F)F)c2)c2ccn([C@@H]3CCCOCC3)c(=O)c21    0.11
CCn1nc(-c2cnc(N)c(OC(F)(F)F)c2)c2ccn([C@H]3CCN(C)C[C@H]3OC(F)(F)F)c(=O)c21    0.04
CCc1nc(-c2cnc(N)c(OC(F)(F)F)c2)c2ccc(C3CCOCC3)nn12    0.20
CC(C)n1cc(-c2cnc(N)c(C(F)(F)F)c2)c2nc(C3CC3)ccc21    1.43
CCc1nc(-c2cnc(N)c(C(F)(F)F)c2)c2ccc(C3(F)CCN(C)CC3)cn12    -0.22
CCn1nc(-c2cnc(N)c(OC(F)F)c2)c2ccn([C@H]3CCOC[C@H]3OC3CCC3)c(=O)c21    -0.19

* * *

# Assay name: Intrinsic clearance in dog liver microsomes
# Type: ADME, Canis lupus familiaris, Microsome
# Recorded conditions: read-out: CLH
Quantity kind: microsomal CLint (µL/min/mg)

CCn1nc(-c2cnc(N)c(OC(F)(F)F)c2)c2ccn([C@H]3CCOC[C@H]3OC3CC3)c(=O)c21    21
CCn1nc(-c2cnc(N)c(OC(F)F)c2)c2ccn([C@@H]3CCC(F)(F)C[C@@H]3OC)c(=O)c21    5.8
CCn1nc(-c2cnc(N)c(OC(F)(F)F)c2)c2ccn([C@@H]3CCOC[C@@H]3OC)c(=O)c21    96
CCn1nc(-c2cnc(N)c(OC(F)(F)F)c2)c2ccn([C@H]3CCN(C)C[C@H]3OC(F)(F)F)c(=O)c21    21
CCn1nc(-c2cnc(N)c(OC(F)(F)F)c2)c2ccn([C@H]3CC4(CC4)OC[C@H]3OC)c(=O)c21    5.4

* * *

# Assay name: Half life in IV-dosed cynomolgous monkey
# Assay type: ADME, Macaca fascicularis
# Recorded conditions: cynomolgus monkey, in vivo
Quantity kind: half-life (h)

CCn1nc(-c2cnc(N)c(OC(F)F)c2)c2ccn([C@@H]3CCC(F)(F)C[C@@H]3OC)c(=O)c21    12

* * *

# Assay name: Intrinsic clearance in mouse liver microsomes
# Format: ADME, Microsome
# Recorded conditions: read-out: CLH
Quantity kind: microsomal CLint

CCn1nc(-c2cnc(N)c(OC(F)(F)F)c2)c2ccn([C@H]3CCOC[C@H]3OC3CC3)c(=O)c21    21 µL/min/mg
CCn1nc(-c2cnc(N)c(OC(F)(F)F)c2)c2ccn(C3CCN(C)CC3)c(=O)c21    4 µL/min/mg
CCn1nc(-c2cnc(N)c(OC(F)(F)F)c2)c2ccn([C@@H]3CCOC[C@@H]3OC)c(=O)c21    8.3 µL/min/mg
CCc1nc(-c2cnc(N)c(C(F)(F)F)c2)c2ccc(C3CCOCC3)cn12    9 µL/min/mg
Nc1ncc(-c2nn(C3CC3)c3c(=O)n(C4CCOCC4)ccc23)cc1OC(F)(F)F    17 µL/min/mg
